Reported koff values for the following binders.
Target: His-tagged BACE1 protein (Example 15) (Homo sapiens (Human), UniProt P56817 22-457)
Sequence (P56817 22-457 limits assumed): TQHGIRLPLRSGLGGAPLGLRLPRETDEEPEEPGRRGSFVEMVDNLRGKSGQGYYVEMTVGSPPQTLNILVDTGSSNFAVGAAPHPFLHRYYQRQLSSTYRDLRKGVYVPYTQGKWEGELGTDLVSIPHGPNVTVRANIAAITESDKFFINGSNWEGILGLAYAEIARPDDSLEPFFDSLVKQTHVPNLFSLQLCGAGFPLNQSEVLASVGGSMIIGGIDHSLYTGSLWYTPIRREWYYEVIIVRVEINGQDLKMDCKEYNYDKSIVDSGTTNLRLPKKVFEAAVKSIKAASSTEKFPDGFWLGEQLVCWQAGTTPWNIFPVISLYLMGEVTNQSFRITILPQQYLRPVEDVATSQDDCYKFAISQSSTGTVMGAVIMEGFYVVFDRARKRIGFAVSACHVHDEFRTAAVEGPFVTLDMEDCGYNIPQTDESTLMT
Assay: SPR (Biacore T200), Fab on captured His-BACE1;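 further: Single-cycle kinetics with serially diluted Fab flowed over BACE1 captured by anti-His antibody on a CM5 chip, rates fitted to a one-to-one Langmuir model, Kd derived as koff over kon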
experimental-readout: koff (s⁻¹)

binder: 6266.14 Fab (Fab, V domains shown) VH: QVQLVQSGAEVKKPGSSVKVSCKASGGTLSGYGVSWVRQAPGQGLEWMGNIIPGFGVANYAQKFQGRVTITADESTSTAYMELSSLRSEDTAVYYCARSGGTKWGMLDVWGQGTMVTVSS VL: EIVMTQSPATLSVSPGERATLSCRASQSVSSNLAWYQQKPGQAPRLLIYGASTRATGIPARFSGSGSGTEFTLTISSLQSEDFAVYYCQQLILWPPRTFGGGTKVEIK
reported: 0.000474

binder: 6266.12 Fab (Fab, V domains shown) VH: QVQLVQSGAEVKKPGSSVKVSCKASGGTLNGYGVSWVRQAPGQGLEWMGNIIPGFGTANYAQKFQGRVTITADESTSTAYMELSSLRSEDTAVYYCARSGGTKYGMLDVWGQGTMVTVSS VL: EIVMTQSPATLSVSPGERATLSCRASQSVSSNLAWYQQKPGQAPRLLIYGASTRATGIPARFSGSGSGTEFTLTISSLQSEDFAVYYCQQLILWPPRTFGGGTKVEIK
reported: 0.000447

binder: 6266.10 Fab (Fab, V domains shown) VH: QVQLVQSGAEVKKPGSSVKVSCKASGGTLSGYGVSWVRQAPGQGLEWMGNIIPGFGTANYAQKFQGRVTITADESTSTAYMELSSLRSEDTAVYYCARSGGTKYGMLDVWGQGTMVTVSS VL: EIVMTQSPATLSVSPGERATLSCRASQSVSSNLAWYQQKPGQAPRLLIYGASKRATGIPARFSGSGSGTEFTLTISSLQSEDFAVYYCQQLILWPPRTFGGGTKVEIK
reported: 0.000506

binder: 6266.6 Fab (Fab, V domains shown) VH: QVQLVQSGAEVKKPGSSVKVSCKASGGTLSHYGVSWVRQAPGQGLEWMGNIIPGIGTANYAQKFQGRVTITADESTSTAYMELSSLRSEDTAVYYCARSGGTQYGMLDVWGQGTMVTVSS VL: EIVMTQSPATLSVSPGERATLSCRASQSVSSNLAWYQQKPGQAPRLLIYGASTRAYGIPARFSGSGSGTEFTLTISSLQSEDAAVYYCQQLILWPPRTFGGGTKVEIK
reported: 0.000278

binder: 6266.4 Fab (Fab, V domains shown) VH: QVQLVQSGAEVKKPGSSVKVSCKASGGTLSHYGVSWVRQAPGQGLEWMGNIIPGIGTANYAQKFQGRVTITADESTSTAYMELSSLRSEDTAVYYCARSGGTKYGMLDVWGQGTMVTVSS VL: EIVMTQSPATLSVSPGERATLSCRASQSVSSNLAWYQQKPGQAPRLLIYGASKRATGIPARFSGSGSGTEFTLTISSLQSEDFAVYYCQQLILWPPRTFGGGTKVEIK
reported: 0.00017

binder: 6266.1 Fab (Fab, V domains shown, not tied singly) VH: QVQLVQSGAEVKKPGSSVKVSCKASGGTLSHYGVSWVRQAPGQGLEWMGNIIPGIGTANYAQKFQGRVTITADESTSTAYMELSSLRSEDTAVYYCARSGGTKYGMLDVWGQGTMVTVSS VL: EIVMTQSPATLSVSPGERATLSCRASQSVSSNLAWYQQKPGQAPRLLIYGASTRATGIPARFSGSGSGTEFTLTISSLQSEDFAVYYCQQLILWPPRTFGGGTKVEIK
reported: 0.000161

binder: 6266.15 Fab (Fab, V domains shown) VH: QVQLVQSGAEVKKPGSSVKVSCKASGGTLSGYGVSWVRQAPGQGLEWMGNIIPGFGTANYAQKFQGRVTITADESTSTAYMELSSLRSEDTAVYYCARSGGTKYGELDVWGQGTMVTVSS VL: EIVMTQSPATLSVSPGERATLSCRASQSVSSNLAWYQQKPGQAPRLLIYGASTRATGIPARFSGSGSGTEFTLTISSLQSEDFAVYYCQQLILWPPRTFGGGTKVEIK
reported: 0.000495
